# assayed_target: HLA-B*07 (Homo sapiens, UniProt P01889)
# assay_notes: MHC binding assay (UV-ligand exchange, ELISA of stabilized MHC complexes)
# condition_label: peptide exchange yield on HLA-B*07, UV-ligand exchange
metric_name: Peptide exchange

Answer with the recorded Peptide exchange for the substance listed here: 363 (KPRTPFTTA; listed as Homo sapiens) [compound 363]
++++ (>75% = ++++)

Answer with the recorded Peptide exchange for the substance listed here: 368 (NPASRLTAL; listed as Homo sapiens) [compound 368]
++++ (>75% = ++++)

Answer with the recorded Peptide exchange for the substance listed here: 262 (SPSTSRTPLLSSL; listed as Homo sapiens) [compound 262]
++++ (>75% = ++++)

Answer with the recorded Peptide exchange for the substance listed here: 456 (VPVSHPVLTL; listed as Homo sapiens) [compound 456]
+++ (>50 = +++)

Answer with the recorded Peptide exchange for the substance listed here: 285 (RITWKGLLL; listed as Homo sapiens) [compound 285]
+++ (>50 = +++)

Answer with the recorded Peptide exchange for the substance listed here: 139 (LVILQHQAM; listed as Homo sapiens) [compound 139]
+++ (>50 = +++)

New cases:
Answer with the recorded Peptide exchange for the substance listed here: 181 (LPVSPARAL; listed as Homo sapiens) [compound 181]
+++ (>50 = +++)

Data provenance is patent US20220289816A1.
